biological target: Recombinant DRB4 protein (DRA1/B4*01:01) (human) (UniProt P01903); assay: peptide binding competition assay
pIC50: −log10 of the molar value.

BINDER	pIC50
VAPVIKARMMEYGTTMVSYQ [GAD65 529–548 peptide]	5.55
ICKKYKIWMHVDAAWGGGLL [GAD65 353–372 peptide]	6.05
DERGKMIPSDLERRILEAKQ [GAD65 305–324 peptide]	4.54
SDLERRILEAKQKGFVPFLV [GAD65 313–332 peptide]	4.66
NTNMFTYEIAPVFVLLEYVT [GAD65 201–220 peptide]	5.92

Hey, just so you know, these numbers are from paper PMC6426329.
